- assay overview: in vitro
- recorded conditions: human
measured attribute: CC50

1) CCC(CC)COC(=O)[C@H](C)N[P@](=O)(OC[C@H]1O[C@@](C#N)(c2ccc3c(N)ncnn23)[C@H](O)[C@@H]1O)Oc1ccccc1 ... > 100 µM

====

- System: HCoV-OC43
- assay overview: HCoV-OC43 cytopathic effects
- Type: cell-based
- recorded conditions: Betacoronavirus 1, OC43, HCT-8, 120 h, read-out: Anti-HCoV-OC43 (EC50/μM)
measured attribute: EC50 (µM)

1) CCC(CC)COC(=O)[C@H](C)N[P@](=O)(OC[C@H]1O[C@@](C#N)(c2ccc3c(N)ncnn23)[C@H](O)[C@@H]1O)Oc1ccccc1 ... 0.82
